Data origin, for the record: ChEMBL document CHEMBL5291721

testedSystem: Gamma-aminobutyric acid receptor subunit alpha-1 (Rattus norvegicus); also: assay procedure not described here
Sequence (P62813 whole entry): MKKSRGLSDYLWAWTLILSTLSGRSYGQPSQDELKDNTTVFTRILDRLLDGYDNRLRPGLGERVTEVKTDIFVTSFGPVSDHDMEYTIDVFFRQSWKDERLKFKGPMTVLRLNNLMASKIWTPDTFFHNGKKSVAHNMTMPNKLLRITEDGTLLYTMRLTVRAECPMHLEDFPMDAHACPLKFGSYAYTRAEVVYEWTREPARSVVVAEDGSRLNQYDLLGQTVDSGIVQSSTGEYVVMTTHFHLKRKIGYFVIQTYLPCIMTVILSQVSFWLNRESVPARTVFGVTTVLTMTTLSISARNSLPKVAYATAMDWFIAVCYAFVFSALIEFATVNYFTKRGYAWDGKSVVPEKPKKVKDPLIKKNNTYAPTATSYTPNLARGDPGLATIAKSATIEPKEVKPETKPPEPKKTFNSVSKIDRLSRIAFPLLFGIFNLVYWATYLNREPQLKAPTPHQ
Format: functional
propertyMeasured: AC50

# count of solved cases: 3
# smilesNotation, AC50
measured = [
    ("CN1CCC(=C2c3ccccc3CCc3cccnc32)CC1", "> 10 µM"),
    ("C[C@H](CCC(=O)O)[C@H]1CC[C@H]2[C@@H]3[C@@H](O)C[C@@H]4C[C@H](O)CC[C@]4(C)[C@H]3CC[C@]12C", "> 30 µM"),
    ("CN1C(C(=O)Nc2ccccn2)=C(O)c2ccccc2S1(=O)=O", "> 10 µM"),
]

query: Lab note: need AC50 with Gamma-aminobutyric acid receptor subunit alpha-1 (Rattus norvegicus) for entry "CN1C[C@H](C(=O)N[C@]2(C)O[C@@]3(O)[C@@H]4CCCN4C(=O)[C@H](Cc4ccccc4)N3C2=O)C=C2c3cccc4[nH]cc(c34)C[C@H]21" , please look it up.
result: > 30 µM

###

Below are AC50 values recorded for UniProtKB P0DMS8.
Sequence (P0DMS8 whole entry): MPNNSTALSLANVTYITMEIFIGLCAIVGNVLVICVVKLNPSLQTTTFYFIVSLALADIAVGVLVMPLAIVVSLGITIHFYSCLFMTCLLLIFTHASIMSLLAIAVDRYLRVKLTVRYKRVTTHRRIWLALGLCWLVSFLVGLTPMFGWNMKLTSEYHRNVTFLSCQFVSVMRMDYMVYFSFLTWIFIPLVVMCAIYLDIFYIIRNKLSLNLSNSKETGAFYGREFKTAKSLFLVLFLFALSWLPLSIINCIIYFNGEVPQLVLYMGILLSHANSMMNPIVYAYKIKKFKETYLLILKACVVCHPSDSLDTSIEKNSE

# count of solved cases: 5
# compound, AC50
measured = [
    ("CCC[C@H](NC(=O)[C@@H]1[C@H]2CCC[C@H]2CN1C(=O)[C@@H](NC(=O)[C@@H](NC(=O)c1cnccn1)C1CCCCC1)C(C)(C)C)C(=O)C(=O)NC1CC1", "> 30 µM"),
    ("C#C[C@]1(OC(C)=O)CC[C@H]2[C@@H]3CCC4=C/C(=N/O)CC[C@@H]4[C@H]3CC[C@@]21CC [NORGESTIMATE]", "11 µM"),
    ("CC(N)C12CC3CC(CC(C3)C1)C2 (stereo unspecified)", "> 10 µM"),
    ("COc1cc(N)c(Cl)cc1C(=O)NC1CCN(Cc2ccccc2)CC1 [CLEBOPRIDE]", "> 30 µM"),
    ("Nc1ncn([C@H]2C[C@H](O)[C@@H](CO)O2)c(=O)n1", "> 30 µM"),
]

Hello, I would appreciate it if you could give AC50 for each entry below.
1. C=C1/C(=C\C=C2/CCC[C@]3(C)[C@@H]([C@H](C)/C=C/[C@@H](O)C4CC4)CC[C@@H]23)C[C@@H](O)C[C@@H]1O
2. CCOC(=O)O[C@]1(C(=O)OCCl)CC[C@H]2[C@@H]3CCC4=CC(=O)C=C[C@]4(C)[C@H]3[C@@H](O)C[C@@]21C [LOTEPREDNOL ETABONATE]
3. CCN(CC)C(=O)Nc1ccc(OCC(O)CNC(C)(C)C)c(C(C)=O)c1 (stereo unspecified)
4. COc1ccc(CC2c3cc(OC)c(OC)cc3CC[N+]2(C)CCC(=O)OCCCCCOC(=O)CC[N+]2(C)CCc3cc(OC)c(OC)cc3C2Cc2ccc(OC)c(OC)c2)cc1OC (stereo unspecified)
5. CN(C)CCC[C@@]1(c2ccc(F)cc2)OCc2cc(C#N)ccc21
6. CCC1(c2ccccc2)CCC(=O)NC1=O (stereo unspecified) [GLUTETHIMIDE]
7. C=CCNc1nc(NCC=C)nc(N2CCN(C(c3ccc(F)cc3)c3ccc(F)cc3)CC2)n1

result:
1. 12 µM
2. > 30 µM
3. > 30 µM
4. > 30 µM
5. > 30 µM
6. > 10 µM
7. > 30 µM

###

testedSystem: 5-hydroxytryptamine receptor 1A (Homo sapiens, UniProt P08908); also: assay procedure not described here
Sequence (P08908 whole entry): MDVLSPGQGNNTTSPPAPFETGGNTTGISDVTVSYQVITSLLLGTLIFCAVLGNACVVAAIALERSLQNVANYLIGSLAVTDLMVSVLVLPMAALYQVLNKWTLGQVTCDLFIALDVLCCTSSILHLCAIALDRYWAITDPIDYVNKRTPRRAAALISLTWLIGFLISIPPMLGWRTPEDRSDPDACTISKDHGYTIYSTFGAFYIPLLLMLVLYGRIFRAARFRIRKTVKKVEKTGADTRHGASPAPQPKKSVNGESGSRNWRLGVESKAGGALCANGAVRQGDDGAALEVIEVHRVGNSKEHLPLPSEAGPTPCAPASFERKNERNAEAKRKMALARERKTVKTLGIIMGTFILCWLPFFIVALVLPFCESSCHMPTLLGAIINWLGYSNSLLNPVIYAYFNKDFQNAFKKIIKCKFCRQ
Assay type: functional, cell-based
propertyMeasured: AC50

# count of solved cases: 3
# compound, AC50
rows = [
    ("C#C[C@]1(O)CC[C@H]2[C@@H]3CCC4=CC(=O)CC[C@@H]4[C@H]3C(=C)C[C@@]21CC [ETONOGESTREL]", "> 30 µM"),
    ("C[C@@H](Oc1cc(-c2cnn(C3CCNCC3)c2)cnc1N)c1c(Cl)ccc(F)c1Cl [CRIZOTINIB]", "> 10 µM"),
    ("Oc1ccc2c(c1)CC[C@H](c1ccccc1)[C@@H]2c1ccc(OCCN2CCCC2)cc1 [LASOFOXIFENE]", "> 30 µM"),
]

Turning now to a further compound:
query: Look at this compound and give its reported AC50. CC(S)C(=O)NCC(=O)O (centres undefined) [TIOPRONIN]
result: > 30 µM
